Sourced from ChEMBL document CHEMBL5104129

measurement target: UniProtKB P28845
experiment notes: Inhibition of 11beta-HSD1 (unknown origin) using 3H-cortisone as substrate by scintillation proximity assay
Known IC50 of a selection of compounds
Please give a number only; it is taken to be in nM.

Field: example entries. Status: answers known.
# compound, output unit, IC50
measured = [
    ("O=C1N(C2CCCCC2)CC[C@]12C[C@@H](O)CN2Cc1ccc(Cl)cc1", "nM", 6),
    ("CC(C)CN1CCCC12CCN(C13CC4CC(CC(C4)C1)C3)C2=O (stereo not drawn)", "nM", 400),
    ("O=C1N(C2CCCCCC2)CCC12CCCN2Cc1ccc(Cl)cc1 (stereo not drawn)", "nM", 7),
    ("CC(C1CCC1)N1C[C@H](O)C[C@]12CCN(C1CCCCC1)C2=O (stereo partly drawn)", "nM", 7),
    ("CCNC(=O)c1ccc(-c2cc(CN3C[C@H](O)C[C@]34CCN(C3CCCCC3)C4=O)ccc2F)cn1", "nM", 62),
]

Prompt: Give IC50 for the following compound: O=C1N(C2CCCCC2)CCC12CCCN2Cc1ccccn1 (stereo not drawn)
Completion: 63

Prompt: Give IC50 for the following compound: N#Cc1ccnc(-c2ccc(CN3C[C@H](O)C[C@]34CCN(C3CCCCC3)C4=O)cc2)c1
Completion: 35

----------
measurement target: 11-beta-hydroxysteroid dehydrogenase 1 (Homo sapiens, UniProt P28845)
Sequence (P28845 whole entry): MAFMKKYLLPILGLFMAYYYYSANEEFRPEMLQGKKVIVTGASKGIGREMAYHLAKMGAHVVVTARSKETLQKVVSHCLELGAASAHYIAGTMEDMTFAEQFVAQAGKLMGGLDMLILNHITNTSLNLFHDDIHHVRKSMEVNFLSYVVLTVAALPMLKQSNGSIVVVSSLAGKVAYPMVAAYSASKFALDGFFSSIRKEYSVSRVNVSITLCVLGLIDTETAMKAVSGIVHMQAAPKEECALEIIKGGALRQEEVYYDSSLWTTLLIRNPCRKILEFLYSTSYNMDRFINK
experiment notes: Inhibition of 11beta-HSD1 (unknown origin) using 3H-cortisone as substrate by scintillation proximity assay
measured metric: pIC50
The scale used: pIC50 is minus the common logarithm of the concentration in molar units.

Field: example entries. Status: answers known.
# compound, pIC50
data = [
    ("N#Cc1cccc(-c2ccc(CN3C[C@H](O)C[C@]34CCN(C3CCCCC3)C4=O)cn2)c1", 7.04),
    ("O=C1N(C2CCCCC2)CC[C@]12C[C@H](F)CN2Cc1ccc(Cl)cc1", 8.70),
    ("O=C1N(C2CCCCC2)CCC12C[C@@H](O)CN2Cc1ccc(Cl)cc1 (stereo not given in full)", 8.15),
]

Prompt: Give pIC50 for the following compound: CNC(=O)c1ccc(-c2ccc(CN3C[C@H](O)C[C@]34CCN(C3CCCCC3)C4=O)c(F)c2)cn1
Completion: 8.05

----------
measurement target: hERG (KCNH2) (Homo sapiens, UniProt Q12809)
Sequence (Q12809 whole entry): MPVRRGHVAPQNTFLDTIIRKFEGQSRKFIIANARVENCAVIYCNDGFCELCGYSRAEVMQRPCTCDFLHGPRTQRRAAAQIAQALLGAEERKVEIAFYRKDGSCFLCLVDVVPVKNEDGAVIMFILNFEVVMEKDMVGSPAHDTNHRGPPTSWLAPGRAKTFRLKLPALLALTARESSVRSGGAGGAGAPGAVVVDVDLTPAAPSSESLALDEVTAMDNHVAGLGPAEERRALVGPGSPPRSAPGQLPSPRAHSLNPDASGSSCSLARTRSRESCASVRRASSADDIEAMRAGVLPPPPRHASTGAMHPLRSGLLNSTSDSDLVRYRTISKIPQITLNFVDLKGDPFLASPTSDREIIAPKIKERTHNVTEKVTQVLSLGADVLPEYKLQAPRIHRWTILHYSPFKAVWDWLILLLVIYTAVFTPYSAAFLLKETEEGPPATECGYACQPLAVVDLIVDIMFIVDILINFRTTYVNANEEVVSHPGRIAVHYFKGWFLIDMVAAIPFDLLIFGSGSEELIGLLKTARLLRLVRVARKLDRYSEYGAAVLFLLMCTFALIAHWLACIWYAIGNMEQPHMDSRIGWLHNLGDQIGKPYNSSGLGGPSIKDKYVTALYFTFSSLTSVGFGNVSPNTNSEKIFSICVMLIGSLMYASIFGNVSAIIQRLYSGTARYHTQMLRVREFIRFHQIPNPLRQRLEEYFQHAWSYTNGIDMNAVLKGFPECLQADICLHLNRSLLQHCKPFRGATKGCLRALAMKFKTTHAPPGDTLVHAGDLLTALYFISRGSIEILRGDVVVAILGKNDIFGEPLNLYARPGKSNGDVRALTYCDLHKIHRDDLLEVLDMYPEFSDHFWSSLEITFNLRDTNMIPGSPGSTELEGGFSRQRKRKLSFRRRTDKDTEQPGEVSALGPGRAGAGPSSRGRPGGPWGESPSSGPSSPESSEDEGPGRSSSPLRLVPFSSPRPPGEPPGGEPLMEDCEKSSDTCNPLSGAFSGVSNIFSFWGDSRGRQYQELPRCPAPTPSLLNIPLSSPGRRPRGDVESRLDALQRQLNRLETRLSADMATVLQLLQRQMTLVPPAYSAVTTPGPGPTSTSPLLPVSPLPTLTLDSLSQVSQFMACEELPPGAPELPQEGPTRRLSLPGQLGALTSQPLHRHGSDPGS
experiment notes: Inhibition of human ERG expressed in CHO cells at 30 uM at -80 mV holding potential by automated patch clamp assay relative to control
Format: toxicity, cell-based
reported conditions: CHO cells expressing human ERG
Known inhibition at 30 µM of a selection of molecules
Please give a number only; it is taken to be in %.

# molecule, inhibition at 30 µM [%]
rows = [
    ("O=C1N(C2CCCCC2)CC[C@]12C[C@@H](O)CN2CC1CCCCC1", 8.1),
    ("O=C1N([C@H]2CC[C@H](O)CC2)CCC12CCCN2Cc1ccc(Cl)cc1 (some centres undefined)", 13),
    ("CC(C1CC1)N1C[C@H](O)C[C@]12CCN(C1CCCCC1)C2=O (some centres undefined)", -10),
]

Turning to the following molecule.
Prompt: Report value: inhibition at 30 µM, system: hERG (KCNH2) (Homo sapiens, UniProt Q12809), molecule: O=C1N(C2CCCCC2)CC[C@@]12C[C@H](O)CN2Cc1ccc(Cl)cc1
Completion: -4.3
